Molecular target: S. pyogenes SKKanGAS, kanamycin survival, BacTiterGlo, 6 h
Test: S. pyogenes SKKanGAS kanamycin growth inhibitors – SKKanGAS strain, luminescence, dose confirmation, streptokinase promoter inhibitor project, dose response (AID 1902);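 further: lower survival reflects blocked streptokinase promoter driving kanamycin resistance gene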
Active and inactive are the calls of the source.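 How the source made its calls: active means EC50 no more than a set limit of log units above the highest dose; inactive means the rest.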
Hi! Could you answer with just one of these? active, inactive

| MOLECULE | CLASS_NAME |
| --- | --- |
| Cc1cccc(NC(=O)C(=O)NNC(=O)c2ccc(C(C)(C)C)cc2)c1 | active |
| Cc1ccc(O)c(C(=O)CC(=O)c2ccccc2Cl)c1 | active |
| NS(=O)(=O)c1ccc(N2N=C(c3ccccc3)CC2c2ccc(F)cc2)cc1 (stereo unspecified) | active |
| CSc1nc2nccc(-c3ccc(-c4ccccc4)cc3)n2n1 | active |
| CC(C)C[C@H](NC(=O)N1CC(=O)Nc2ccccc21)C(=O)N[C@H](C(=O)O)c1ccccc1 | inactive |
| CC(NS(=O)(=O)OCC(Cl)(Cl)Cl)c1ccc(C(C)(C)C)cc1 (stereo unspecified) | active |

Problem: Kindly provide the recorded test outcome for the following molecule: COc1ccc2cc(C(=O)NCc3ccccc3)c(=Nc3ccc(C(=O)O)cc3)oc2c1
Result: active

Problem: Identify the outcome logged in this assay for the molecule shown: O=C(Nc1ccccc1Cl)/C(Cl)=C(\Cl)S(=O)c1ccccc1 (stereo unspecified)
Result: active

Problem: Entry CC(/C=C/c1ccc(N(C)C)cc1)=N/N=C1/NC(=O)CC(C(=O)Nc2ccc(Cl)cc2)S1 (stereo unspecified) : call = ?
Result: active

Problem: Could you check what this test reported for Cc1cccc2sc(NC(=O)c3ccc(NS(=O)(=O)c4cccs4)cc3)nc12 ?
Result: active

Problem: Per the records of this test, what outcome belongs to CCOC(=O)c1cccc(N2C(N)=NC(N)=NC2(C)C)c1 ?
Result: active

====

Target: S. pyogenes SKKanGAS, kanamycin survival, BacTiterGlo, 6 h
Test: S. pyogenes SKKanGAS kanamycin growth inhibitors – SKKanGAS strain, luminescence, dose confirmation, streptokinase promoter inhibitor project, dose response (AID 1902);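 further: lower survival reflects blocked streptokinase promoter driving kanamycin resistance gene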
The source made the active and inactive calls.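 Rule for the calls: active = EC50 no more than a set limit of log units above the highest dose; inactive = the rest.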
Pick from label 1 = active, label 0 = inactive when you respond.

Previously resolved entries follow.
| COMPOUND | ASSAY_SYSTEM | CLASS_NAME |
| --- | --- | --- |
| COc1ccc(OC)c(NC(=O)NCc2cccnc2)c1 | S. pyogenes SKKanGAS, kanamycin survival, BacTiterGlo, 6 h | label 0 |
| CC(=O)NC(=S)Nc1ccc(NC(=S)NC(=O)/C=C/c2ccco2)cc1 | S. pyogenes SKKanGAS, kanamycin survival, BacTiterGlo, 6 h | label 1 |
| CC(C)OC(=O)c1c(NS(=O)(=O)c2ccccc2)sc2c1CCCC2 | S. pyogenes SKKanGAS, kanamycin survival, BacTiterGlo, 6 h | label 1 |
| O=C(Nc1ccc(OC(F)(F)F)cc1)N1CCN(c2ccnc3cc(Cl)ccc23)CC1 | S. pyogenes SKKanGAS, kanamycin survival, BacTiterGlo, 6 h | label 1 |
| O=C(N/N=C/c1c[nH]c2ccccc12)c1cc(-c2ccc(-c3ccccc3)cc2)n[nH]1 | S. pyogenes SKKanGAS, kanamycin survival, BacTiterGlo, 6 h | label 1 |
| CC(=O)Nc1ccc(C#Cc2ccc(NC(C)=O)cc2)cc1 | S. pyogenes SKKanGAS, kanamycin survival, BacTiterGlo, 6 h | label 1 |
| Cc1sc2ncnc(N3CCC(C(=O)NCC(=O)Nc4ccc(F)c(F)c4)CC3)c2c1C | S. pyogenes SKKanGAS, kanamycin survival, BacTiterGlo, 6 h | label 1 |
| C=CC1=C(C(=O)O)N2C(=O)C(NC(=O)Cc3ccccc3)C2SC1 (stereo not given) | S. pyogenes SKKanGAS, kanamycin survival, BacTiterGlo, 6 h | label 1 |
| CCCCC(=O)NC(c1ccc(Cl)cc1Cl)c1ccc2cccnc2c1O (stereo not given) | S. pyogenes SKKanGAS, kanamycin survival, BacTiterGlo, 6 h | label 1 |

Problem: Could you check what this test reported for CCCCCCCCCC[N+](C)(C)CC/C=C1/c2ccccc2Sc2ccc(Cl)cc21 ?
Result: label 1

Origin of values: PubChem BioAssay AID1902
